Test system: MOLM1 and UCSD/AML1 (averaged)
Assay: cell viability relative to DMSO control (POC); higher = less growth inhibition
Conditions: 1 µM; 72 h
Hit rate of the full screen: of about 2,100 compounds, about 180 (8.6%) showed an effect of 50% or more. Many of the other results were omitted from the sample, so strong results are more common in it than they were.
Hi! Could you tag entries with cell viability below 90% as Yes, and those at or above as No? Much appreciated.

Exercise: I wonder whether COc1ccc2c(c1)OCC(Cc1ccc(OC)c(OC)c1)C2=O (configuration not stated) has cell viability below 90%. Can you tell?
Key: No

Exercise: I wonder whether "COC1=C(OC)C(=O)C(C/C=C(\C)CC/C=C(\C)CC/C=C(\C)CC/C=C(/C)CC/C=C(\C)CC/C=C(\C)CC/C=C(\C)CC/C=C(\C)CC/C=C(\C)CCC=C(C)C)=C(C)C1=O" has cell viability below 90%. Can you tell?
Key: Yes

Exercise: I wonder whether "CN[C@@H](C)C(=O)N[C@H]1CN(C(=O)CC(C)C)CC[C@H]2CC[C@@H](C(=O)NC(c3ccccc3)c3ccccc3)N2C1=O" has cell viability below 90%. Can you tell?
Key: Yes

Exercise: I wonder whether "CN1CCN(C(c2ccccc2)c2ccccc2)CC1" has cell viability below 90%. Can you tell?
Key: No

Exercise: I wonder whether "COC(=O)c1ccc2c(C(=Nc3ccc(N(C)C(=O)CN4CCN(C)CC4)cc3)c3ccccc3)c(O)[nH]c2c1" has cell viability below 90%. Can you tell?
Key: Yes

Exercise: I wonder whether "Sc1nc2ccccc2s1" has cell viability below 90%. Can you tell?
Key: No

Exercise: I wonder whether "COc1ccc2c(c1)OC/C(=C/c1ccc(OC)c(OC)c1)C2=O" has cell viability below 90%. Can you tell?
Key: No

Exercise: I wonder whether "NC1=NCCN1CC(=O)O" has cell viability below 90%. Can you tell?
Key: No

Exercise: I wonder whether COc1c(-c2coc3cc4c(cc3c2=O)CC(O)C(C)(C)O4)ccc2c1C=CC(C)(C)O2 (configuration not stated) has cell viability below 90%. Can you tell?
Key: Yes

Exercise: I wonder whether "O=c1[nH]cnc2nc[nH]c12" has cell viability below 90%. Can you tell?
Key: No

Exercise: I wonder whether "Cc1cc(O)cc(=O)o1" has cell viability below 90%. Can you tell?
Key: No

Exercise: I wonder whether "COc1ccc(-c2cc(=O)c3c(O)c(OC)c(O[C@@H]4O[C@H](CO[C@@H]5O[C@@H](C)[C@H](O)[C@@H](O)[C@H]5O)[C@@H](O)[C@H](O)[C@H]4O)cc3o2)cc1" has cell viability below 90%. Can you tell?
Key: No

Exercise: I wonder whether "COc1cccc(O)c1O" has cell viability below 90%. Can you tell?
Key: No

Exercise: I wonder whether CC(C)c1cc(-c2n[nH]c(=O)n2-c2ccc3c(ccn3C)c2)c(O)cc1O [Ganetespib (STA-9090)] has cell viability below 90%. Can you tell?
Key: Yes

Exercise: I wonder whether "O=C(O[C@@H]1Cc2c(O)cc(O)cc2O[C@@H]1c1cc(O)c(=O)c2c(O)c(O)cc([C@H]3Oc4cc(O)cc(O)c4C[C@H]3O)c2c1)c1cc(O)c(O)c(O)c1" has cell viability below 90%. Can you tell?
Key: No

Exercise: I wonder whether "CC(C)=CCc1c(O)cc2occ(-c3ccc4c(c3)OCO4)c(=O)c2c1O" has cell viability below 90%. Can you tell?
Key: No

Exercise: I wonder whether C=C1[C@H]2CC[C@@]3(C)[C@H](c4ccoc4)OC(=O)C[C@]13O[C@H]1C[C@H](O)C(C)(C)[C@H](CC(=O)OC)[C@]12C [3-DEOXY-3beta-HYDROXYANGOLENSIC ACID METHYL ESTER] has cell viability below 90%. Can you tell?
Key: No

Exercise: I wonder whether C#CCCCCCCCCCCCC(O)CC(O)CO (configuration not stated) has cell viability below 90%. Can you tell?
Key: Yes

Exercise: I wonder whether OCC(O)C(O)C(O)C(O)C(O)CO (configuration not stated) has cell viability below 90%. Can you tell?
Key: No

Exercise: I wonder whether COC(=O)[C@@H]1OC(=O)C2OC23[C@@]1(C)CCC1[C@]2(C)C(C[C@H](O)[C@]13C)C(C)(C)[C@H](OC(C)=O)C[C@@H]2OC(C)=O (stereo partly drawn) [7beta-HYDROXY-7-DESACETOXYKHIVORINIC ACID, METHYL ESTER] has cell viability below 90%. Can you tell?
Key: No

Exercise: I wonder whether "COc1ccc2c(c1)OC[C@@H](Cc1ccc(OC)c(OC)c1)[C@H]2O" has cell viability below 90%. Can you tell?
Key: No

Exercise: I wonder whether CC(O)Cn1cnc2c1c(=O)n(C)c(=O)n2C (configuration not stated) has cell viability below 90%. Can you tell?
Key: No

Exercise: I wonder whether "COc1ccc2c(c1)O[C@H]1c3ccc(OC)cc3OC[C@@H]21" has cell viability below 90%. Can you tell?
Key: No

Exercise: I wonder whether "COc1ccc(-c2coc3cc(O)ccc3c2=O)cc1" has cell viability below 90%. Can you tell?
Key: No

Exercise: I wonder whether Cn1cnc2c(F)c(Nc3ccc(Br)cc3Cl)c(C(=O)NOCCO)cc21 [AZD6244 (Selumetinib)] has cell viability below 90%. Can you tell?
Key: Yes

Exercise: I wonder whether "C[C@]12CC[C@H](O)CC1=CC[C@@H]1[C@@H]2CC[C@]2(C)C(c3cccnc3)=CC[C@@H]12" has cell viability below 90%. Can you tell?
Key: No

Exercise: I wonder whether "COc1c(C)c2c(c(O)c1C/C=C(\C)CCC(=O)O)C(=O)OC2" has cell viability below 90%. Can you tell?
Key: Yes
